Attribute: growth inhibition
Test: NCI Yeast Anticancer Drug Screen. Data for the mec2-1 strain (AID 157)
Conditions: S. cerevisiae mec2-1 strain, at 50.0 µM, active compounds read high
Compounds without any hit were thinned out: in the full panel of roughly 79,000, 15% have a hit.
Field format: number, assumed %, no unit text.

Worked examples, 6 compounds total:
## Input Please report the recorded growth inhibition for O=C(Nc1cccc([N+](=O)[O-])c1)N1CCCC1 .
## Output -16.4

## Input Entry to check: COc1cc(C=O)c(-c2c(C=O)ccc3c2OCO3)c(OC)c1OC
## Output -1.9

## Input Entry to check: C[C@@]1(CO)O[C@H]1CCC#C[Si](C)(C)C
## Output -32.4

## Input Entry to check: O=C1C2Nc3ccccc3N=C2OC1c1cccc([N+](=O)[O-])c1 (configuration not stated)
## Output 15.6

## Input Entry to check: CCc1c(CN)c(CC)c(CNC2=NCCN2)c(CC)c1CNC1=NCCN1
## Output 3.45

## Input Entry to check: NNCCc1n[nH]c(=O)n1N
## Output -18.4

---
## Input Please report the recorded growth inhibition for CN(C)P1(=O)N(c2ccc(Cl)cc2)P(=O)(N(C)C)N1c1ccc(Cl)cc1 (configuration not stated) .
## Output -35.6

## Input Entry to check: CCC1(C)CC(=O)N(C/C=C(\C)CCC(=O)O)C(=O)C1
## Output 4.5

----------
Assay: NCI Yeast Anticancer Drug Screen. Data for the sgs1 mgt1 strain (AID 161);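 further: 0% = growth of cultures given vehicle only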
Details: S. cerevisiae sgs1 mgt1 strain, at 50.0 µM, active compounds read high
About 79,000 compounds went through this panel and 15% of them were active in at least one assay; those are over-represented in the sample as a whole.
Attribute: growth inhibition
Field format: number, assumed %, no unit text.

Worked examples, 5 compounds total:
## Input Please report the recorded growth inhibition for Cc1ccc2nc(-c3ccc(Cl)cc3Cl)oc(=O)c2c1 .
## Output 20.4

## Input Entry to check: O=C(O)CCC(=O)Nc1cc([N+](=O)[O-])ccc1OCc1ccccc1
## Output -5.35

## Input Entry to check: O=C(O)c1ccc(-c2nn[nH]n2)cc1
## Output -4

## Input Entry to check: COc1ccc(OC)c(C(=O)C2=C(c3cc(OC)ccc3OC)CCC2)c1
## Output 33.2

## Input Entry to check: CNC(=O)NC(c1ccc2c(c1)OCO2)c1cc2c(cc1O)OCO2 (stereo not given)
## Output 13.9

---
## Input Please report the recorded growth inhibition for Nc1ccn([C@H]2CO[C@@H](CO)O2)c(=O)n1 .
## Output -18.7

## Input Entry to check: CC(C)(CCN)[N+](=O)[O-]
## Output 17.9

## Input Entry to check: c1ccc2c(c1)c1ccccc1c1c3ccccc3c3ccccc3c21
## Output -1.05

## Input Entry to check: CN(C)c1ncnc2nc[nH]c12
## Output -6.1

## Input Entry to check: CN(C)c1cc2c(cc1N(C)C)-c1ccccc1C2
## Output 13.9

## Input Entry to check: C1=CCC(C(Cc2ccccc2)N2CCCCC2)CC1 (stereo not given)
## Output 23.9

## Input Entry to check: NC(N)=NS(=O)(=O)c1ccc(Nc2c3ccccc3nc3c(C(=O)NNCCO)cccc23)cc1
## Output 25.6

## Input Entry to check: COc1ccc2ncc(COC(C)=O)c(COC(C)=O)c2c1
## Output -7.8
